# System: HT29 colon
# assay-overview: NCI tumour cell line growth inhibition, 48 h
Each entry below lists one item and its recorded log10(TGI) value.
Record value = log10 of TGI given in µM.

compound	experimental-value
C=C1C(=O)O[C@@H]2C[C@@]3(C)[C@H](O)CCC(=C)[C@@H]3C[C@H]12	1.08
O=C(Nc1nc2ccc(S(=O)(=O)Nc3ccc(C4(C(F)(F)F)CC4)cc3)cc2[nH]1)c1cnccn1	1.16
C/C(=N\NC(=S)N1CCC1)c1ccccn1	1.54

input: What value of measured log10(TGI) is listed for CN(C)C1C(=O)C(C(N)=O)=C(O)C2(O)C(=O)C3=C(O)c4c(O)cccc4C(C)(O)C3CC12.[Cl][Sb]([Cl])[Cl] (configuration not stated) ?
output: 1.09

input: And what about the compound "N#CN1CC[C@H](C(=O)Nc2ncc(-c3ccccc3)s2)C1" ?
output: 0.26
